Entry source: the supplement of paper PMC12645437

Molecular target: T1, CRBN, Q96SW2;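 further: pooled lentiviral library of zinc finger degron-EGFP fusions in mCherry-positive Jurkat cells, FACS-sorted after compound exposure, with degron abundance counted by next-generation sequencing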
T1 chain: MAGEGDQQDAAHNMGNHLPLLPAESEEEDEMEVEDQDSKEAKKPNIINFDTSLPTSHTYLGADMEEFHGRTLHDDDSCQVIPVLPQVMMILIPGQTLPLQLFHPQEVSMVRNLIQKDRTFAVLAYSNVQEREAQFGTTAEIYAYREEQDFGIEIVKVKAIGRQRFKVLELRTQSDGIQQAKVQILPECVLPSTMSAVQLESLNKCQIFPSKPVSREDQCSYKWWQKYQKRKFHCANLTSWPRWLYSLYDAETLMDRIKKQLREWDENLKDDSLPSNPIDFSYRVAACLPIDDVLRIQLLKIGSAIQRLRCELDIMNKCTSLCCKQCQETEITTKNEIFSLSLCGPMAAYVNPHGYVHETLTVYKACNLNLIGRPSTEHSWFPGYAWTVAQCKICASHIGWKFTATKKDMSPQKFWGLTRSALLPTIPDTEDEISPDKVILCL
Experiment: log2 fold change of degron read counts, EGFP-low vs EGFP+ sorted cells (limma voom), compound-induced degradation; higher = more compound-induced degradation of the degron-EGFP fusion; degrons are variants of IKZF1/3 zinc finger 2; compound dose not given here
Settings: Jurkat; 18 h; compound: compound 22 (5-morpholino-thalidomide)
The full ranking holds about 8,300 sequences; the median of “log2 fold change of degron read counts, EGFP-low vs EGFP+ sorted cells (limma voom), compound-induced degradation” is about -1.1, and the highest 2% start at about 3.2. For the sample, the highest values were picked, then their nearest neighbours and some sequences at random.
resultType: log2 fold change of degron read counts
Give bare numbers.

# monomerSequence, log2 fold change of degron read counts
measured = [
    ("FVCEVCGARFTQKGNLLRHIKL [46F_47V_49E_50V_52G_53A_54R_55F_67L_, Q9UKT9]", 2.78),
    ("FQCEVCGARFTQKGNLLRHIKL [46F_47Q_49E_50V_52G_53A_54R_55F_67L_, Q9UKT9]", 1.95),
    ("FGCEVCGADFTQKGNLLRHIKL [46F_47G_49E_50V_52G_53A_54D_55F_67L_, Q9UKT9]", -2.17),
    ("FNCEVCGARFTQKGNLLRHIKL [46F_47N_49E_50V_52G_53A_54R_55F_67L_, Q9UKT9]", 0.955),
    ("FACEVCGARFTQKGNLLRHIKL [46F_47A_49E_50V_52G_53A_54R_55F_67L_, Q9UKT9]", 3.03),
]

Give one value of log2 fold change of degron read counts per listed sequence.
1. FACEVCGADFTQKGNLLRHIKL [46F_47A_49E_50V_52G_53A_54D_55F_67L_, Q9UKT9]
2. FYCEICGRPFTQKGNLLRHIKL [46F_47Y_49E_50I_52G_53R_54P_55F_67L_, Q9UKT9]

-1.42
1.62
